Where do the numbers come from? From PubChem BioAssay AID588689.

Measured inhibition, listed per entry.
Biological target: Genome polyprotein (Dengue virus type 2 (strain 16681-PDK53))
Assay: flavivirus cap methylation enzyme inhibition – biochemical, confirmation dose response, primary screen (AID 588689)
Details: Dengue-2 NS5 methyltransferase capping enzyme assay, at 25 µM, stronger effect = higher value
In all, about 340,000 compounds went through this assay and about 1,000 (0.29%) were called active. A selection follows. Potency and affinity values are given separately.
Report the figure in % without appending any unit label.

COc1ccc(-n2c3c(cc(C(=O)NC4CCSC4=O)c2=O)C(=O)CC(C)(C)C3)cc1 (stereo not given); 3.46
COc1ccccc1-n1cc(-c2ccccc2)c2c(=S)nc[nH]c21; 7.35
COc1ccc2[nH]c3c(c2c1)CCN1C(=O)C(CC(=O)NC(C)(C)C)C[C@H](C(=O)N(C(C)C)C(C)C)[C@@]31C (stereo not given in full); -6.62
Cc1nn(-c2ccccc2)c(C)c1-c1ccccc1O; -5.22

Let us examine a further case.
Prompt: Quick check: inhibition on Genome polyprotein (Dengue virus type 2 (strain 16681-PDK53)), item Cc1cccc(C2c3c(n(C)c(=O)n(C)c3=O)N=C3c4ccccc4C(=O)C32)c1 (stereo not given) ?
Response: 2.3
